system: HCV replicon cells; assay: HCV replicon FRET / luciferase assay; format: cell-based, Hepatitis C virus; settings: Hepatitis C virus
pEC50: −log10 of the molar value.
reportedProperty: pEC50

Entry CN1CC2CCC(C1)N2C(=O)C12CC1c1c(OC(F)(F)F)cccc1-c1c(C3CCCCC3)c3ccc(C(=O)O)cc3n1C2 (stereo not drawn) — recorded pEC50 = 6.30 to 9.00

Entry COc1ccc2c(c1)C1CC1(C(=O)N1C3CCC1CN(C)C3)Cn1c-2c(C2CCCCC2)c2ccc(C(=O)NS(=O)(=O)C3CCCCC3)cc21 (stereo not drawn) — recorded pEC50 = 6.30 to 9.00

Entry CCN(C)S(=O)(=O)NC(=O)c1ccc2c(C3CCCCC3)c3n(c2c1)CC1(C(=O)N2C4CCC2CN(C)C4)CC1c1cc(OC)ccc1-3 (stereo not drawn) [drawing 96] — recorded pEC50 = 6.30 to 9.00
